# EXPERIMENTAL TARGET: RSV F protein (immobilised antigen of Example 6.1) (respiratory syncytial virus)
# Sequence (P03420 26-524): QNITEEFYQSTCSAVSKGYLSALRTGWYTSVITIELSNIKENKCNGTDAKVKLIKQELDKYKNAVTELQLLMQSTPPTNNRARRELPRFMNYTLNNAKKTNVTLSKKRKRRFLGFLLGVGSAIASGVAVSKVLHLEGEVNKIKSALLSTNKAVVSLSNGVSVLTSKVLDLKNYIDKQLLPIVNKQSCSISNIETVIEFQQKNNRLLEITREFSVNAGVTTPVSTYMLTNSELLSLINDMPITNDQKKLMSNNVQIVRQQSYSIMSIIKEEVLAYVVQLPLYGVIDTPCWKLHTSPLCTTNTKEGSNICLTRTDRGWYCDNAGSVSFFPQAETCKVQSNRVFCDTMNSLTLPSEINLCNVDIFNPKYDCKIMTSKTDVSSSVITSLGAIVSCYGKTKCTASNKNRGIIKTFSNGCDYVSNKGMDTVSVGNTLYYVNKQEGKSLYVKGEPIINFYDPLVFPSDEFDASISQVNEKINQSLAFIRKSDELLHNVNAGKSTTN
# MEASUREMENT NOTES: BIAcore
ENDPOINT: kon (M⁻¹ s⁻¹)
Note: unit M⁻¹ s⁻¹ is implicit; provide only the numeric part.

Consider the reported kon for these binders:
# BINDER, VAL
records = [
    ("P12f2 Fab (Fab, V domains shown, Fab) VH: QVTLRESGPALVKPTQTLTLTCTFSGFSLSTPGMSVGWIRQPPGKALEWLADIWWDDKKHYNPSLKDRLTISKDTSKNQVVLKVTNMDPADTATYYCARDMIFNFYFDVWGQGTTVTVSS VL: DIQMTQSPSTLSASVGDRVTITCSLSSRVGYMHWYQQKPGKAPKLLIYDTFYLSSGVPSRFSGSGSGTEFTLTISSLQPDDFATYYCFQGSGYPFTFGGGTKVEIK", 663000),
    ("A13a11 Fab (Fab, V domains shown, Fab) VH: QVTLRESGPALVKPTQTLTLTCTFSGFSLSTAGMSVGWIRQPPGKALEWLADIWWDDKKHYNPSLKDRLTISKDTSKNQVVLKVTNMDPADTATYYCARDMIFNWYFDVWGQGTTVTVSS VL: DIQMTQSPSTLSASVGDRVTITCSPSSRVGYMHWYQQKPGKAPKLLIYDTYRHSSGVPSRFSGSGSGTEFTLTISSLQPDDFATYYCFQGSGYPFTFGGGTKVEIK", 735000),
    ("1X-493L1FR Fab (Fab, V domains shown, also called IX-493L1FR) VH: QVTLRESGPALVKPTQTLTLTCTFSGFSLSTSGMSVGWIRQPPGKALEWLADIWWDDKKDYNPSLKSRLTISKDTSKNQVVLKVTNMDPADTATYYCARSMITNWYFDVWGQGTTVTVSS VL: DIQMTQSPSTLSASVGDRVTITCSASSSVGYMHWYQQKPGKAPKLLIYDTSKLASGVPSRFSGSGSGTEFTLTISSLQPDDFATYYCFQGSGYPFTFGGGTKVEIK", 185000),
    ("A1e9 Fab (Fab, V domains shown, Fab; also called Ale9) VH: QVTLRESGPALVKPTQTLTLTCTFSGFSLSTAGMSVGWIRQPPGKALEWLADIWWDGKKHYNPSLKDRLTISKDTSKNQVVLKVTNMDPADTATYYCARDMIFNWYFDVWGQGTTVTVSS VL: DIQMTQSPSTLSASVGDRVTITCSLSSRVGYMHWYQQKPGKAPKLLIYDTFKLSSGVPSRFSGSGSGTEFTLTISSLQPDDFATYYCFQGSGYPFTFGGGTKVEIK", 790000),
]

Please examine the following record next.
Prompt: Query: kon; subject: A12a6 Fab (Fab, V domains shown, Fab) VH: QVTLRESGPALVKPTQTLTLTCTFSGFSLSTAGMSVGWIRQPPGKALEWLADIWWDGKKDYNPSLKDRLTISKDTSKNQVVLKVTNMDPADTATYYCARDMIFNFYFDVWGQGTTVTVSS VL: DIQMTQSPSTLSASVGDRVTITCSASSRVGYMHWYQQKPGKAPKLLIYDTFKLSSGVPSRFSGSGSGTEFTLTISSLQPDDFATYYCFQGSGYPFTFGGGTKVEIK
Completion: 743000
